target: Human cytomegalovirus DNA polymerase (Human cytomegalovirus (strain AD169) (HHV-5) (Human herpesvirus 5), UniProt P08546); assay: CMV polymerase assay (AlphaLISA); details: HCMV polymerase 0.2 nM, 30 min pre-incubation, 60 minute at 37° C.
Experimental Readout: pIC50
Entry type: numeric. Quantity: pIC50, the -log10 of concentration in molar units.

Record excerpt, results attached:
| Molecule | Experimental Readout | Value |
| --- | --- | --- |
| COc1ccc(-c2cc3ncn(Cc4ccc(Cl)cc4)c(=O)c3cc2O[C@H]2CCN3C(=O)OC[C@@H]3C2)cn1 [Example 57] | pIC50 | 7.37 |
| O=C1OC[C@@H]2C[C@@H](Oc3ccc4ccn(Cc5ccc(Cl)cc5)c(=O)c4c3)CCN12 [Example 23] | pIC50 | 7.40 |
| Cc1nc2cc(C3CC(O)C3)c(O[C@H]3CCN4C(=O)OC[C@@H]4C3)cc2c(=O)n1Cc1ccc(Cl)cc1 (single isomer, unassigned) [Example 61] | pIC50 | 8.19 |
| Cc1nc2cc(C#N)c(N3CCN(C)C[C@H]3C)cc2c(=O)n1Cc1ccc(C#N)cc1F [Example 63] | pIC50 | 6.63 |
| Cc1nc2cc(-c3cnc(N4CCOCC4)nc3)c(O[C@H]3CCN4C(=O)OC[C@@H]4C3)cc2c(=O)n1Cc1ccc(Cl)cc1 [Example 97] | pIC50 | 7.85 |

Bench note: what pIC50 did Cc1nc2cc(-c3cnn(C)c3)c(O[C@H]3CCN4C(=O)OC[C@@H]4C3)cc2c(=O)n1Cc1ccc(Cl)cc1 [Example 52] show?
9.52

Field request: pIC50 | item: O=C1OC[C@@H]2C[C@@H](Oc3cnc4ncn(Cc5ccc(Cl)cc5)c(=O)c4c3)CCN12 [Example 28]
7.32

Item under review: Cc1nc2cc(-c3cnco3)c(O[C@H]3CCN4C(=O)OC[C@@H]4C3)cc2c(=O)n1Cc1ccc(Cl)cc1 [Example 51] . Reported pIC50?
9.66

Query (molecule): COc1ncc(-c2cc3nc(C)n(Cc4ccc(Cl)cc4)c(=O)c3cc2O[C@H]2CCN3C(=O)OC[C@@H]3C2)cn1 [Example 5] ; field requested: pIC50
7.82

Could you share which pIC50 value was measured for Cc1nc2cc(-c3cccnc3)c(O[C@H]3CCN4C(=O)OC[C@@H]4C3)cc2c(=O)n1Cc1ccc(Cl)cc1 [Example 54] ?
7.64

# query: pIC50 of entry COc1ncc(-c2cc3nc(C)n(Cc4ccc(C#N)cc4)c(=O)c3cc2O[C@H]2CCN3C(=O)OC[C@@H]3C2)cn1 [Example 75]
7.54

Query: pIC50; subject: O=C1OC[C@@H]2C[C@@H](Oc3cc4c(=O)n(Cc5ccc(Cl)cc5)ccc4nc3-c3cnn(C(F)F)c3)CCN12 [Example 31]
8.52

Param item = Cc1nc2cc(-c3cc4n(n3)CCN(C)C4)c(O[C@H]3CCN4C(=O)OC[C@@H]4C3)cc2c(=O)n1Cc1ccc(Cl)cc1 [Example 86] ; retrieve measured pIC50.
9.36

What value of pIC50 has been reported for the following molecule? C[C@@H]1CN(C2CCOC2)CCN1c1ccc2ncn(Cc3ccc(Cl)cc3)c(=O)c2c1 (single isomer, unassigned) [Example 44]
7.11

---

system: CMV; experiment: Viral qPCR assay, CMV; format: cell-based; settings: infected cells, ~72 hrs, viral genome copies by qPCR normalized to PPIA; read-out: CMV Cell EC50
Experimental Readout: pEC50
// field semantics: pEC50 = negative decimal log of concentration (mol/L)

| Molecule | pEC50 |
| --- | --- |
| O=C1OC[C@@H]2C[C@@H](Oc3cnc4c(C5CC5)cn(Cc5ccc(Cl)cc5)c(=O)c4c3)CCN12 [Example 1] | 5.98 |
| N#Cc1ccc(Cn2c(=O)[nH]c3cc(-c4cnco4)c(O[C@H]4CCN5C(=O)OC[C@@H]5C4)cc3c2=O)cc1 [Example 10] | 7.15 |
| COc1ccc(-c2cc3nc(C)n(Cc4ccc(Cl)cc4)c(=O)c3cc2O[C@H]2CCN3C(=O)OC[C@@H]3C2)nn1 [Example 14] | 6.55 |
| Cc1nc2cc(-c3cn(C(F)F)nn3)c(O[C@H]3CCN4C(=O)OC[C@@H]4C3)cc2c(=O)n1Cc1ccc(Cl)cc1 [Example 12] | 6.95 |
| O=C1OC[C@@H]2C[C@@H](Oc3cc4c(=O)n(Cc5ccc(Cl)cc5)cnc4nc3-c3cnco3)CCN12 [Example 7] | 6.98 |

Using the record for O=C1OC[C@@H]2C[C@@H](Oc3cc4c(=O)n(Cc5ccc(Cl)cc5)ccc4cn3)CCN12 [Example 2] , report its pEC50.
6.06

---

molecular target: Human cytomegalovirus DNA polymerase (Human cytomegalovirus (strain AD169) (HHV-5) (Human herpesvirus 5)); experiment: CMV polymerase assay (AlphaLISA); conditions: HCMV polymerase 0.2 nM, 30 min pre-incubation, 60 minute at 37° C.
Experimental Readout: pIC50
A value of pIC50 is the negative decimal logarithm of a concentration given in moles per litre.

Examples with answers:
| Compound | pIC50 |
| --- | --- |
| Cc1nc2cc(-c3cnn(C(F)F)c3)c(O[C@H]3CCN4C(=O)OC[C@@H]4C3)cc2c(=O)n1Cc1ccc(C#N)cc1F [Example 64] | 8.60 |
| O=C1OC[C@@H]2C[C@@H](Oc3cc4c(=O)n(Cc5ccc(Cl)cc5)cnc4nc3-c3cnn(C(F)F)c3)CCN12 [Example 36] | 8.72 |
| CC(C)(N)Cc1cc2ccn(Cc3ccc(Cl)cc3)c(=O)c2cc1O[C@H]1CCN2C(=O)OC[C@@H]2C1 [Example 32] | 7.82 |
| N#Cc1ccc(Cn2c(=O)[nH]c3cc(-c4cnco4)c(O[C@H]4CCN5C(=O)OC[C@@H]5C4)cc3c2=O)cc1 [Example 10] | 9.62 |
| Cc1nc2cc(-c3cc4n(n3)CCN(CC(F)(F)F)C4)c(O[C@H]3CCN4C(=O)OC[C@@H]4C3)cc2c(=O)n1Cc1ccc(Cl)cc1 [Example 147] | 8.15 |

Can you look up the measured pIC50 of Cc1nc2cc(C3CC(O)C3)c(O[C@H]3CCN4C(=O)OC[C@@H]4C3)cc2c(=O)n1Cc1ccc(C#N)cc1 (stereo partly shown) [Example 72] for me?
8.12

Reported pIC50 for Cc1nc2cc(-c3cn4c(n3)CN(C)CC4)c(O[C@H]3CCN4C(=O)OC[C@@H]4C3)cc2c(=O)n1Cc1ccc(C#N)cc1 [Example 87] : what is it?
9.36

---

target: varicella zoster virus DNA polymerase (Varicella-zoster virus (strain Dumas) (HHV-3) (Human herpesvirus 3), UniProt P09252); assay: VZV polymerase assay (AlphaLISA); settings: VZV polymerase 0.4 nM, 30 min pre-incubation, 60 minute at 37° C.
I'd appreciate it if you marked entries label 1 when IC50 is lower than 20 nM and label 0 when it is not.

| Compound | Class Assignment |
| --- | --- |
| O=C1OC[C@@H]2C[C@@H](Oc3ccc4ncn(Cc5ccc(Cl)cc5)c(=O)c4c3)CCN12 | label 0 |
| Cc1nc2cc(-c3cnn(C(F)F)c3)c(O[C@H]3CCN4C(=O)OC[C@@H]4C3)cc2c(=O)n1Cc1ccc(C#N)c(F)c1 | label 1 |
| Cc1nc2cc(-c3cnco3)c(O[C@H]3CCN4C(=O)OC[C@@H]4C3)cc2c(=O)n1Cc1ccc(C#N)cc1 | label 1 |
| CC(=O)N1CCC(Oc2ccc3ccn(Cc4ccc(Cl)cc4)c(=O)c3c2)CC1 | label 0 |
| O=C1OC[C@@H]2C[C@@H](Oc3ccc4nc(C5CC5)n(Cc5ccc(Cl)cc5)c(=O)c4c3)CCN12 | label 0 |
| Cc1nc2ncc(O[C@H]3CCN4C(=O)OC[C@@H]4C3)cc2c(=O)n1Cc1ccc(Cl)cc1 | label 0 |
| Cc1nc2cc(C3CCC3O)c(O[C@H]3CCN4C(=O)OC[C@@H]4C3)cc2c(=O)n1Cc1ccc(C#N)cc1 (single isomer, unassigned) | label 1 |
| Cc1nc2c(CC(C)(C)O)cc(O[C@H]3CCN4C(=O)OC[C@@H]4C3)cc2c(=O)n1Cc1ccc(Cl)cc1 | label 0 |
| Cc1nc2cc(-c3cn(C(F)F)cn3)c(O[C@H]3CCN4C(=O)OC[C@@H]4C3)cc2c(=O)n1Cc1ccc(C#N)cc1 | label 1 |
| C[C@@H]1CN(C2CCOC2)CCN1c1ccc2ncn(Cc3ccc(Cl)cc3)c(=O)c2c1 (single isomer, unassigned) | label 0 |

Determine if "Cc1nc2cc(C#N)c(O[C@H]3CCN4C(=O)OC[C@@H]4C3)cc2c(=O)n1Cc1ccc(Cl)cc1" shows IC50 strictly lower than 20 nM.
label 1

Regarding "O=C1OC[C@@H]2C[C@@H](Oc3cc(-c4cnco4)c4ncn(Cc5ccc(Cl)cc5)c(=O)c4c3)CCN12" , kindly confirm whether its IC50 is beneath 20 nM.
label 1
